Molecular target: human RAF1 (Homo sapiens)
Sequence (P04049 whole entry): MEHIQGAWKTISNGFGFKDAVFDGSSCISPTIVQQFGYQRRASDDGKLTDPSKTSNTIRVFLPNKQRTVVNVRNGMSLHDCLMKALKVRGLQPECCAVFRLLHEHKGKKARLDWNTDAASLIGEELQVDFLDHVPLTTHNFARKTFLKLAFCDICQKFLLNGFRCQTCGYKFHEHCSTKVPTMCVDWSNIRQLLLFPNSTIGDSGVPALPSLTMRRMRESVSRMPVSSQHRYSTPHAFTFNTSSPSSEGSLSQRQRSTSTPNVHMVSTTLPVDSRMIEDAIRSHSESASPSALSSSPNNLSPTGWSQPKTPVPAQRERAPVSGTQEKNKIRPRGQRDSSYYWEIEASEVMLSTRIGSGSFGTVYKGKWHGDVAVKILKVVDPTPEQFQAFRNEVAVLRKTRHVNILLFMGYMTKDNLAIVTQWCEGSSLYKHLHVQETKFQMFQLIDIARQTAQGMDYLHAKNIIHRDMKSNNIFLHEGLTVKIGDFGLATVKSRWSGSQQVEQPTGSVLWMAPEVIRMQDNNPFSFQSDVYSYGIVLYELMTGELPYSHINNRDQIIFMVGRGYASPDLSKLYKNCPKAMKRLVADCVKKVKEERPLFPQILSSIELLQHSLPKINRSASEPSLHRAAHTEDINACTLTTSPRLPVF
Assay: Protein kinase assay (33P-ATP filter binding), human RAF1, 10-dose IC50
Conditions: MEK1 (K97R) substrate 3 micromolar, ATP 10 micromolar, read-out: RAF-1 IC50
Property: IC50

Compound	IC50
Cc1cc(F)c(NC(=O)N2CC[C@H](C(C)(F)F)C2)cc1-c1cc(OCCO)nc(N2CCOCC2)c1 (single isomer, unassigned) [Example 33]	< 10 nM
Cc1ccc(NC(=O)N(C)c2cnn(C(F)(F)F)c2)cc1-c1cc(OC[C@@H](C)O)nc(N2CCOCC2)c1 [Example 156]	< 10 nM

API: the following record is the query input.
QUERY: Need IC50, item Cc1cc(F)c(NC(=O)N2CCO[C@@H](C(F)(F)F)C2)cc1-c1cnc(OC2CCOCC2)c(N2CCOCC2)c1 [Example 87]
RESULT: < 10 nM
